assay: Inhibition of HCV NS5B RdRp activity; set-up: species or system Hepacivirus hominis
RECORDED ENDPOINT: pIC50
Please keep in mind that pIC50 is minus log10 of the molar concentration; only the number is needed.

Req: For O=C(NN1C(=O)CSC1c1ccccc1F)c1cc(-c2ccc(F)cc2F)ccc1O (stereo unspecified) , write its pIC50.
Resp: 4.32

====

test: Cytotoxicity against BHK cells transfected with HCV NS5B RdRp assessed as cell viability at 100 uM after 42 hrs by luciferase reporter gene assay; format: cell-based, Mesocricetus auratus; conditions: hamster, read-out: Activity
RECORDED ENDPOINT: viability at 42 h, 100 µM (%)
// return numeric value only (unit: %, not printed)

Look over these answered cases.
INPUT SMILES: O=C1N/C(=N\c2nnc(-c3ccc(F)cc3)s2)S/C1=C\c1c(Cl)cccc1Cl
ASSAY RESULT: 72.2

INPUT SMILES: O=C1N/C(=N\c2nnc(-c3ccc(F)cc3)s2)S/C1=C\c1cccc(F)c1
ASSAY RESULT: 55.1

INPUT SMILES: O=C(CCl)Nc1nnc(-c2ccc(F)cc2)s1
ASSAY RESULT: 98.3

INPUT SMILES: O=C1N/C(=N\c2nnc(-c3ccc(F)cc3)s2)S/C1=C\c1c(F)cccc1Cl
ASSAY RESULT: 89.8

INPUT SMILES: O=C1N/C(=N\c2nnc(-c3ccc(F)cc3)s2)S/C1=C\c1ccccc1F
ASSAY RESULT: 55.7

Req: For `COc1cccc(OC)c1/C=C1\S/C(=N/c2nnc(-c3ccc(F)cc3)s2)NC1=O` , write its viability at 42 h, 100 µM.
Resp: 73.7

Req: For `COc1cccc(OC)c1/C=C1\S/C(=N/c2nnc(-c3ccc(Cl)cc3)s2)NC1=O` , write its viability at 42 h, 100 µM.
Resp: 87.4

Req: For `O=C1N/C(=N\c2nnc(-c3ccc(Cl)cc3)s2)S/C1=C\c1cccc(F)c1` , write its viability at 42 h, 100 µM.
Resp: 58.1

Req: For `O=C1N/C(=N\c2nnc(-c3ccc(F)cc3)s2)S/C1=C\c1ccc([N+](=O)[O-])cc1` , write its viability at 42 h, 100 µM.
Resp: 14.6

Req: For `O=C1N/C(=N\c2nnc(-c3ccc(F)cc3)s2)S/C1=C\c1ccc(Cl)cc1Cl` , write its viability at 42 h, 100 µM.
Resp: 0

Hello, the source for this data is ChEMBL document CHEMBL2434825, in case you need it.
